Assay: Quantitative highthroughput screen to assess conditional lethalithy of NOMO1 cells grown in Human Plasma-Like Medium with dialyzed fetal bovine serum (HPLM+ds) (AID 1963878); note: nearly all actives have a fitted effect of over 35% in size
Conditions: NOMO1 AML cells in HPLM+ds, CellTiter-Glo viability, 48 h; series mostly up to 45.8 µM
Experimental: Assay Provider: Jason Cantor Ph.D. Department of Biochemistry University of Wisconsin-Madison, Madison, WI, USA Chemical screening studies have identified drug sensitivities across hundreds of cancer cell lines but most putative therapeutics fail to translate. […] Sets of conditional anticancer compounds spanned phases of clinical development and included non-oncology drugs were assessed. […] 6; Detection; Luminescence, Viewlux PerkinElmer. […]
Results filed as inconclusive are left out. The source made the active and inactive calls. Calls come from the whole dose curve; as a rule, active = well fitted cell-killing curve with a large enough effect; inconclusive = small, poorly fitted or top-dose-only effect, or effect the other way; inactive = no such curve, though single readings can be large or run the other way.
Allowed answers: active, inactive

Worked examples, 4 compounds total:
| MOL | ASSIGNED_CATEGORY |
| --- | --- |
| C[C@H](O)[C@@H]1C(=O)N2C(C(=O)O)=C(S[C@@H]3CN[C@H](CNS(N)(=O)=O)C3)[C@@H](C)[C@@H]12 | inactive |
| Cc1ccc(C)c(OCCCC(C)(C)C(=O)O)c1 | inactive |
| CC(C)N1[N]C(=C2C=c3cc(O)ccc3=N2)c2c(N)ncnc21 | active |
| NC(=O)c1nnn(Cc2cc(Cl)c(C(=O)c3ccc(Cl)cc3)c(Cl)c2)c1N | inactive |

Assay result, entry `COCCCN1CCC(NC(=O)c2cc(Cl)c(N)c3c2OCC3)CC1` — outcome? inactive
